PROCEDURE SUMMARY: chemical genetic growth profiling, strain panel (AID 1159580);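 also: tested at 20 µM; growth read once vehicle control cultures reached saturation at 30 °C; 1 = growth at the plate median or of vehicle wells; lower values mean less growth of the strain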
RUN PARAMETERS: S. cerevisiae deletion strains, growth OD, locus YDL132W, strain cdc53, active compounds read low
Screen size: about 5,500 compounds; about 2,000 (36%) were called active. Another 18% or so got no clear call; they are omitted. Some of the results follow.
normalized growth under 0.9 gets satisfied, anything at or over 0.9 gets not satisfied.

Sample answers from the record:
- COMPOUND: "O=C(Nc1cc(Cl)cc(Cl)c1)Nc1cc(-c2ccco2)[nH]n1"
  DISCRETE LABEL: "satisfied"
- COMPOUND: "Cc1cc(SCc2[nH]nc3oc(=O)cc(C)c23)c(Cl)cc1Cl"
  DISCRETE LABEL: "not satisfied"
- COMPOUND: "Cc1ccccc1C(=O)N1CCc2c([nH]c3ccccc23)C1C(F)(F)F (stereo unspecified)"
  DISCRETE LABEL: "not satisfied"
- COMPOUND: "O=C(Nc1cc(Cl)cc(Cl)c1)Nc1cc(-c2cccs2)[nH]n1"
  DISCRETE LABEL: "not satisfied"
- COMPOUND: "N#Cc1c(Cl)c(Cl)c(Cl)c(Cl)c1C#N"
  DISCRETE LABEL: "satisfied"

stdin: Regarding S=C(Nc1cc(-c2cccs2)[nH]n1)Nc1ccccc1Cl , kindly confirm whether its normalized growth is beneath 0.9.
stdout: not satisfied

====

# key: entry, value: normalized growth
PROCEDURE SUMMARY: chemical genetic growth profiling, strain panel (AID 1159580);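 also: tested at 20 µM; growth read once vehicle control cultures reached saturation at 30 °C; 1 = growth at the plate median or of vehicle wells; lower values mean less growth of the strain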
RUN PARAMETERS: S. cerevisiae deletion strains, growth OD, locus YDL074C, strain BRE1, active compounds read low
The whole screen tested about 5,500 compounds, of which about 2,000 (36%) were called active. Not shown: some 18% with an inconclusive outcome. The list shows a part of the results.
Quick one: just the number, no unit, thanks!

Check out these entries, answers already filled in.
- COMPOUND: "NC(N)=NOCC[C@H](N)C(=O)O"
  MEASURED VALUE: 1.02
- COMPOUND: "C=C1CC[C@H](O)C/C1=C/C=C1\\CCC[C@]2(C)C([C@H](C)/C=C/[C@H](C)C(C)C)CC[C@@H]12 (stereo partly specified)"
  MEASURED VALUE: 0.961
- COMPOUND: "O=C(/C=C/C=C/c1ccc2c(c1)OCO2)N1CCCCC1"
  MEASURED VALUE: 0.835
- COMPOUND: "CNC1(C)C2CCC(C2)C1(C)C (stereo unspecified)"
  MEASURED VALUE: 0.957

stdin: Would you kindly share the measured normalized growth for NC[C@@H]1O[C@H](O[C@@H]2[C@@H](CO)OC(O[C@@H]3[C@@H](O)[C@H](N)C[C@H](N)[C@H]3OC3O[C@H](CN)[C@@H](O)[C@H](O)[C@H]3N)[C@@H]2O)[C@H](N)[C@@H](O)[C@@H]1O (stereo partly specified) ?
stdout: 1.01

stdin: Could you tell me which normalized growth is on file for O=C(O)C1C(O)CCC2CN3CCc4c([nH]c5ccccc45)C3CC21 (stereo unspecified) ?
stdout: 1.02

====

PROCEDURE SUMMARY: chemical genetic growth profiling, strain panel (AID 1159580);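 also: tested at 20 µM; growth read once vehicle control cultures reached saturation at 30 °C; 1 = growth at the plate median or of vehicle wells; lower values mean less growth of the strain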
RUN PARAMETERS: S. cerevisiae deletion strains, growth OD, locus YGR078C, strain PAC10, active compounds read low
Among all 5,500 compounds or so, about 2,000 (36%) were called active. Inconclusive results (about 18%) are left out. Some of the results follow.
Threshold-based label: normalized growth under 1 gives t, normalized growth not under 1 gives f.

- STRUCTURE SMILES STRING: "O=[N+]([O-])O[C@H]1CO[C@H]2[C@@H]1OC[C@H]2O[N+](=O)[O-]"
  DISCRETE LABEL: "f"
- STRUCTURE SMILES STRING: "S=C=NCc1ccccc1"
  DISCRETE LABEL: "t"

// next entry
stdin: Given the entry CCCCOc1ccc(OCCCN2CCOCC2)cc1 , would its reported normalized growth be below 1?
stdout: t

Ref: PubChem BioAssay AID1159580
